# B-score listing for each entry below
# targetOfAssay: Inward rectifier potassium channel 2 (Mus musculus) (UniProt P35561)
# Sequence (P35561 whole entry, looked up): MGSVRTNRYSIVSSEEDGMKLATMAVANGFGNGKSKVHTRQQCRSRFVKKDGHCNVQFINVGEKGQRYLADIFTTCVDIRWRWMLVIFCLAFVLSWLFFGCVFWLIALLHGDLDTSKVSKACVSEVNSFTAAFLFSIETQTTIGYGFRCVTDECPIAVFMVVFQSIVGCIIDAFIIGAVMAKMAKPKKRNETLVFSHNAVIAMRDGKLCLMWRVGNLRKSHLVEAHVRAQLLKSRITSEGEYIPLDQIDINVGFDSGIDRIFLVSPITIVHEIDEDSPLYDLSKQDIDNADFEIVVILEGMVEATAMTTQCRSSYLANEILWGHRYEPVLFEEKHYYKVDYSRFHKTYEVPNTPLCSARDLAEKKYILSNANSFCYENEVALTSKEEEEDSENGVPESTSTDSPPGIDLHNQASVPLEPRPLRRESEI
# measurementNotes: blocks the mouse Kir2.1 inward-rectifier potassium channel (AID 1672);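 also: channel flux triggered by added potassium and thallium sulfate stimulus; B-score of peak minus minimum fluorescence over baseline after thallium stimulus; more negative B-score means stronger Kir2.1 block with less thallium influx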
# settings: HEK293-Kir2.1, FluxOR thallium flux fluorescence; at 10 µM; stronger effect = lower value
In all, about 310,000 compounds went through this assay and about 2,600 (0.84%) were called active. The sample holds actives, similar compounds and a random draw of the others, so the mix is not that of the screen.
endpoint: B-score

1) Cc1cc(C)cc(NC(=O)COc2coc(CN3CCN(c4ccccc4)CC3)cc2=O)c1
0 (inactive)
2) CCOc1cc(N2CCOCC2)c(OCC)cc1NC(=O)COc1cccc(Cl)c1
-0.59 (inactive)
3) O=C(NN1CCOCC1)c1cccc(F)c1
0.11 (inactive)
4) CN(Cc1ccccc1F)C(=O)C(Cc1ccccc1)NC(=O)c1ccccc1 (stereo unspecified)
-1.09 (inactive)
5) CCOc1ccccc1NS(=O)(=O)c1cc2c3c(c1)C(C)C(=O)N3CCC2 (stereo unspecified)
-0.71 (inactive)
6) Cc1ccc(C)c(-c2nnc(NC(=O)CS(=O)(=O)c3ccccc3)o2)c1
1.4 (inactive)
7) Cc1c(NC(=O)C(C)OC(=O)c2c3c(nc4ccccc24)CCC(C)C3)c(=O)n(-c2ccccc2)n1C (stereo unspecified)
0.01 (inactive)
8) CSc1ccc(CN2C(=O)NC3(CCCCCC3)C2=O)cc1
1.22 (inactive)
9) Cc1ccc2nc(C)c3c(c2c1)N(c1ccccc1)CC3
-13.2 (active)
10) CC1(C)C/C(=N/Nc2ccc([N+](=O)[O-])cc2[N+](=O)[O-])C(C)(C)O1
-0.99 (inactive)
11) COc1ccccc1OCCNCC(O)COc1cccc2[nH]c3ccccc3c12 (stereo unspecified)
-4.77 (active)
12) COc1ccc(CNC(=O)C(=O)N2CCC3(CC2)OCCN3S(=O)(=O)c2ccc(C)cc2)cc1
0.4 (inactive)
13) Cn1ccsc1=NC(=O)c1cc(S(=O)(=O)N2CCOCC2)ccc1Cl
-1.21 (inactive)
14) COc1cccc(CN(C)CC(=O)NCc2ccccc2Cl)c1OC
-3.73 (inactive)
15) COCCNC(=O)COc1ccc(N(C)S(=O)(=O)c2ccc3ccccc3c2)cc1
-5.91 (active)
16) OC(COc1ccc(F)cc1Cl)CN1CCc2ccccc2C1 (stereo unspecified)
-5.33 (active)
17) CCCC(O)(c1ccc(OC)cc1)C(CN(C)C)c1ccccc1 (stereo unspecified)
-2.85 (inactive)
18) COc1ccc(-c2nn(-c3ccccc3)cc2/C=C2/SC(=S)N(CCCC(=O)O)C2=O)c(C)c1
0.15 (inactive)
19) O=C(O)C1C2C=CC(C2)C1C(=O)NCc1ccccc1 (stereo unspecified)
-0.26 (inactive)
20) CC(C)(C)NCC(O)COc1cccc2[nH]c(=O)[nH]c12 (stereo unspecified)
1.46 (inactive)
21) CN(C)S(=O)(=O)c1cccc(-c2nn(-c3ccccc3)cc2/C=C2\SC(=S)N(CC(=O)O)C2=O)c1
0.81 (inactive)
22) CN(Cc1nc2ccccc2s1)C(=O)c1ccc(F)cc1
1.03 (inactive)
23) CN(c1ccc(OCC(=O)O)cc1)S(=O)(=O)c1ccc2ccccc2c1
-1.8 (inactive)
24) CCN1CCN(c2ccc(S(=O)(=O)N3CCCCC3)cc2NC(=O)c2cccc(NC(C)=O)c2)CC1
0.95 (inactive)
25) N#CCCN(C(=O)COC(=O)C1CCN(c2ccc(C(F)(F)F)cn2)CC1)c1ccc(F)cc1
0.96 (inactive)
26) CC(OC(=O)CCCc1c[nH]c2ccccc12)C(=O)Nc1ccc(S(N)(=O)=O)cc1 (stereo unspecified)
-0.01 (inactive)
